- MEASURED TARGET: recombinant guanylate cyclase reporter cell line (Rattus norvegicus, UniProt P19686+P20595)
- Construct: expressed in transfected cells
- Sequence (P20595 whole entry): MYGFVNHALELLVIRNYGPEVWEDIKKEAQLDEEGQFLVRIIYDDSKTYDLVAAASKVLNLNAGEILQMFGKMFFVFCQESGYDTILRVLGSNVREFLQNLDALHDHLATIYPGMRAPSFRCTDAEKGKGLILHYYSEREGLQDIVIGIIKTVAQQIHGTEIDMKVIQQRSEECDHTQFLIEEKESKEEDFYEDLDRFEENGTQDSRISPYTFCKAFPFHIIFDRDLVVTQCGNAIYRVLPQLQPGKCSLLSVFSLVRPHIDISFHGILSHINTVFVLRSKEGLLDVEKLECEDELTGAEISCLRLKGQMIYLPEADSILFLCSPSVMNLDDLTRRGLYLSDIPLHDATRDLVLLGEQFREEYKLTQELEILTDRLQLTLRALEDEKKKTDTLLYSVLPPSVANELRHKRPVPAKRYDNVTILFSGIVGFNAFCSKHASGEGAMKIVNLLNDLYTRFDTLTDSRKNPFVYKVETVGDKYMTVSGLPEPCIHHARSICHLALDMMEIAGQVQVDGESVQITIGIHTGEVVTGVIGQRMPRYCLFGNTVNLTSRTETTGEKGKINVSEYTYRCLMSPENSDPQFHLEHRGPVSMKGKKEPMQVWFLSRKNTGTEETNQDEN
- Sequence (P19686 whole entry): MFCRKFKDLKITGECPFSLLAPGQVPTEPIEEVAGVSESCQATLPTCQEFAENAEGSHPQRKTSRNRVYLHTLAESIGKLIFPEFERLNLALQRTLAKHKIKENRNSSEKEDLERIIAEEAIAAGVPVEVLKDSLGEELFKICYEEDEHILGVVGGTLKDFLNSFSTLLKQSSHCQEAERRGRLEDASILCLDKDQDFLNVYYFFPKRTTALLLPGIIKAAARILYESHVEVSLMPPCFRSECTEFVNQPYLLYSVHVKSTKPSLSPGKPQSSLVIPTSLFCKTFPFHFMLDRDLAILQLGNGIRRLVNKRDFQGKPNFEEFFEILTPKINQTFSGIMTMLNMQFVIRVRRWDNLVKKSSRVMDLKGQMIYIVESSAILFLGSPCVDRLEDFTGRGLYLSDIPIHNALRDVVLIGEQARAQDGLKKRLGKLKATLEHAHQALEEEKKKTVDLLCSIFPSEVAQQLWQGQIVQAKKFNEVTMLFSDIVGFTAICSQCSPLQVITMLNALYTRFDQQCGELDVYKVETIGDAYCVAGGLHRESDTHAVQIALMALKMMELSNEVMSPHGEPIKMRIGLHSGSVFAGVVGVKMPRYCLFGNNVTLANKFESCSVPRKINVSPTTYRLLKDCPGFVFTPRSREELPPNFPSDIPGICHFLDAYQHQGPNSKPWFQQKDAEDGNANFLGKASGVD
- ASSAY METHOD TEXT: B-2. Action on recombinant guanylate cyclase reporter cell line
- Format: cell-based
- TEST CONTEXT: MEC = minimal effective concentration; in some cases mean values from individual determinations
Structures can show the parent of a compound that is named as a salt.
Recorded MEC for the following molecules
OBSERVABLE: MEC (µM)

MOLECULE: Cc1nc2c(OCc3c(F)cccc3F)cccn2c1C(=O)NC1CC(C)(C)NC(C)(C)C1
OBSERVABLE: MEC
QUANTITATIVE RESULT: 0.20
//
MOLECULE: Cc1cc(OCc2c(F)cccc2F)c2nc(C)c(C(=O)NC(CN)c3ccc(F)c(F)c3)n2c1 (centres unmarked)
OBSERVABLE: MEC
QUANTITATIVE RESULT: 0.20
//
MOLECULE: Cc1cc(OCc2c(F)cccc2F)c2nc(C)c(C(=O)NCC(N)C#N)n2c1 (single isomer, unassigned; enantiomer a) [Example 401]
OBSERVABLE: MEC
QUANTITATIVE RESULT: 1.00
//
MOLECULE: Cc1cc(OCc2c(F)cccc2F)c2nc(C)c(C(=O)NC3CCC(N)C3)n2c1 (single isomer, unassigned) [Example 309]
OBSERVABLE: MEC
QUANTITATIVE RESULT: 0.30
//
MOLECULE: Cc1nc2c(OCc3c(F)cccc3F)cccn2c1C(=O)NC1CC2CCCC(C1)N2 (centres unmarked)
OBSERVABLE: MEC
QUANTITATIVE RESULT: 1.00
//
MOLECULE: Cc1cc(OCc2c(F)cccc2F)c2nc(C)c(C(=O)NC3CCC4NCCC43)n2c1 (racemic)
OBSERVABLE: MEC
QUANTITATIVE RESULT: 1.00
//
MOLECULE: Cc1cc(OCc2c(F)ccc(F)c2F)c2nc(C)c(C(=O)NCC(C)(N)CCC(F)(F)F)n2c1 (single isomer, unassigned; enantiomer a) [Example 410]
OBSERVABLE: MEC
QUANTITATIVE RESULT: 0.10
//
MOLECULE: Cc1nc2c(OCc3c(F)cccc3F)cc(C(F)F)cn2c1C(=O)NCC(C)(N)CF (single isomer, unassigned; enantiomer b) [Example 292]
OBSERVABLE: MEC
QUANTITATIVE RESULT: 0.03
//
MOLECULE: Cc1cc(OCc2c(F)cccc2F)c2nc(C)c(C(=O)NC3C(N)C3(C)C)n2c1 (racemic)
OBSERVABLE: MEC
QUANTITATIVE RESULT: 0.30
//
MOLECULE: Cc1nc2c(OCc3c(F)cccc3F)cc(CF)cn2c1C(=O)NCC(C)(N)CF (centres unmarked)
OBSERVABLE: MEC
QUANTITATIVE RESULT: 0.30
//
MOLECULE: Cc1nc2c(OCc3c(F)cccc3F)cccn2c1C(=O)NC(C)CN (racemic) [Example 17, dihydrochloride]
OBSERVABLE: MEC
QUANTITATIVE RESULT: 1.00
//
MOLECULE: Cc1cc(OCc2c(F)cccc2F)c2nc(C)c(C(=O)NCC(N)c3cccc(OC(F)F)c3)n2c1 (racemic)
OBSERVABLE: MEC
QUANTITATIVE RESULT: 3.00
//
MOLECULE: Cc1nc2c(OCc3c(F)cccc3F)cccn2c1C(=O)NC1CCNc2ccccc21 (racemic) [Example 50]
OBSERVABLE: MEC
QUANTITATIVE RESULT: 0.03
//
MOLECULE: Cc1cc(OCc2c(F)cccc2F)c2nc(C)c(C(=O)NC3CCC(N)C3)n2c1 (mixture of isomers) [Example 308]
OBSERVABLE: MEC
QUANTITATIVE RESULT: 0.20
